Data origin: paper PMC9549030

Let's look at some compounds and their measured remaining activity at 30.581 µM.
SYSTEM_TESTED: UCHL1 (Homo sapiens)
Sequence (P09936 whole entry): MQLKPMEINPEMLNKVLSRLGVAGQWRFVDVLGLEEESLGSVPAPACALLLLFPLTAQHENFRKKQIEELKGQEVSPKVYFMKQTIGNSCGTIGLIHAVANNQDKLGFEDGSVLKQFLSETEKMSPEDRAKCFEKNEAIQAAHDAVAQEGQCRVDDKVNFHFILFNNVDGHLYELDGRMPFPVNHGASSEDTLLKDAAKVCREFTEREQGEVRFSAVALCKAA
TEST_PROTOCOL: Ub-Rhodamine (Ubiquitin rhodamine cleavage) assay
Format: biochemical
EXPERIMENTAL_SETUP: compound 30581 nM; 1 h preincubation; read-out: UCHL1 activity, data point mean
MEASURED_PROPERTY: remaining activity at 30.581 µM

[[record]]
compound = "C#CCCCNC(=O)c1ccc(-n2cnc(NC(=O)[C@H]3CCNC3)c2)cc1 [GK12S]"
assay_value = "90.9%"

[[record]]
compound = "C#CCCCNC(=O)[C@H]1CCN(C#N)C1 [GK16S]"
assay_value = "81%"

[[record]]
compound = "C#CCCCNC(=O)c1ccc(-n2cnc(NC(=O)[C@@H]3CCNC3)c2)cc1 [GK12R]"
assay_value = "93.5%"

[[record]]
compound = "C#CCCCNC(=O)[C@@H]1CCN(C#N)C1 [GK16R]"
assay_value = "83.6%"

